# Tested on: NCI/ADR-RES ovarian
# assay-text: NCI tumour cell line growth inhibition, 48 h
quantity-name: TGI

Recorded result, CCOc1ccc(-c2nc3ccc(-c4nc5ccc(N6CCN(C)CC6)cc5[nH]4)cc3[nH]2)cc1 , TGI: > 100 µM

Recorded result, O=S(Cc1ccccc1)c1ccccc1Cn1cccc1 (stereo not given) , TGI: > 100 µM

Recorded result, Cc1nc(C(N)=S)sc1C(=O)CC(=O)C(=O)Nc1ccc(Br)cc1 , TGI: > 100 µM

Recorded result, N#Cc1c(-c2ccc([N+](=O)[O-])cc2)c2c([nH]c1=O)-c1ccccc1CCC2 , TGI: > 100 µM

Recorded result, CCN1/C(=C/C(C)=C/c2sc3ccc4ccccc4c3[n+]2CC)Sc2ccc3ccccc3c21 , TGI: 5.61 µM

Recorded result, C[n+]1c2ccccc2c(N=[N+]=[N-])c2ccccc21 , TGI: > 10 µM

Recorded result, CCCCCCCCCCC/C=C(/C(=O)CCCO[Si](C)(C)C(C)(C)C)C(=O)OC , TGI: > 100 µM

Recorded result, Cc1ccc(S(=O)(=O)C2=Cc3ccccc3C2(O)c2ccccc2)cc1 (stereo not given) , TGI: 76.6 µM

Recorded result, COc1ccc(C)c2sc(N(Cc3cccnc3)C(=O)c3ccc(C#N)cc3)nc12 , TGI: > 100 µM

Recorded result, COc1ccccc1C#C/C=C\C#Cc1ccccc1C#N , TGI: > 100 µM
